Molecular target: TetR (class B, Tn10) (UniProt P04483)
Sequence (P04483 whole entry): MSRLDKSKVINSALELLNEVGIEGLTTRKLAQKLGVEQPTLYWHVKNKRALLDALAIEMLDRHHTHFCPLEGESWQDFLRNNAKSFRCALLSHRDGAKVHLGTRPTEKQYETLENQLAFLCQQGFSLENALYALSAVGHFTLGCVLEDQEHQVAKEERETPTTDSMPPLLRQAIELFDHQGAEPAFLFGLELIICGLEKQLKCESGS
Experiment: TetR repression strength (sort-seq, GFP reporter) (relative to tetO2 = 1); higher = stronger repression
Conditions: E. coli
The full ranking holds about 18,000 sequences; the median of “TetR repression strength (sort-seq, GFP reporter)” is about 0.23, and the highest 2% start at about 0.68. The entries come from a sample that favours the highest values as a whole.
Classification scheme (TetR repression strength): low = under 0.2, intermediate = from 0.2 up to 0.4, high = 0.4 and over

Residue Sequence	System Under Test	Class Name
TCCCGGACAGTATATGAGA	TetR (class B, Tn10) (UniProt P04483)	intermediate
TCCCGTTCAGTGATCGAGA	TetR (class B, Tn10) (UniProt P04483)	high
TCCCGGAGAGTAGCGGAGA	TetR (class B, Tn10) (UniProt P04483)	intermediate
TCCCGGGGAGTCTGGGAGA	TetR (class B, Tn10) (UniProt P04483)	low
TCCCTGCCAGTCTGCGAGA	TetR (class B, Tn10) (UniProt P04483)	intermediate
TCCCGCTAAGTGCTAGAGA	TetR (class B, Tn10) (UniProt P04483)	intermediate
TCCCGGAAAGTCTGGGAGA	TetR (class B, Tn10) (UniProt P04483)	low
TCCCGTTAAGTGCTAGAGA	TetR (class B, Tn10) (UniProt P04483)	high
TCCCTTTGAGTTTTTGAGA	TetR (class B, Tn10) (UniProt P04483)	high
TCCCTGTCAGTAATCGAGA	TetR (class B, Tn10) (UniProt P04483)	high
TCCCACCCAGTGGTAGAGA	TetR (class B, Tn10) (UniProt P04483)	intermediate
TCCCCGGCAGTCTGGGAGA	TetR (class B, Tn10) (UniProt P04483)	intermediate
TCCCCCTCAGTTGTAGAGA	TetR (class B, Tn10) (UniProt P04483)	intermediate
TCCCGGGAAGTCTGGGAGA	TetR (class B, Tn10) (UniProt P04483)	high
TCCCTGAGAGTGATCGAGA	TetR (class B, Tn10) (UniProt P04483)	low
TCCCATGCAGTGCACGAGA	TetR (class B, Tn10) (UniProt P04483)	low

----------
Target: TetR (class B, Tn10)
Experiment: TetR repression strength (sort-seq, GFP reporter) (relative to tetO2 = 1); higher = stronger repression
Details: E. coli
In all, about 18,000 sequences were measured (“TetR repression strength (sort-seq, GFP reporter)”: median about 0.23, highest 2% from about 0.68 on). What follows is part of a selection rich in the highest values, with near analogues and random picks from the rest.
Metric Name: TetR repression strength

Residue Sequence	Observed Measurement
TCCCGATCAGTTATAGAGA	0.579
TCCCTAGTAGTGCAAGAGA	0.538
TCCCGGGTAGTTCGGGAGA	0.723
TCCCCAAAAGTGTGGGAGA	0.821
TCCCGGGGAGTTCGGGAGA	0.307
TCCCATGGAGTTCGGGAGA	0.228
TCCCATTTAGTCGGAGAGA	0.231
TCCCATTGAGTTCGAGAGA	0.29
TCCCCATTAGTCGCGGAGA	0.241
TCCCGCCGAGTCCCGGAGA	0.317
TCCCGAAGAGTTGTTGAGA	0.233
TCCCAGTTAGTTCGGGAGA	0.0688
TCCCTTTTAGTTATAGAGA	0.231
TCCCCAAAAGTCATGGAGA	0
TCCCATTCAGTCCGCGAGA	0.259
TCCCCCGCAGTGCATGAGA	0.385
